System: Fer (mouse)
test: phosphorylation enrichment, bacterial display (enrichment ratio); higher = better substrate or ligand; peptides without Tyr show the background;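 note: 11-residue human phosphosite peptides and single-mutation variants displayed on the E. coli surface, counted by deep sequencing, each peptide's frequency after selection divided by its frequency in the unselected input library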;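 note: frequency after pTyr selection over input frequency; kinase dosed for 20-30% of maximal phosphorylation in three min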
Kind request: treat 0.5 as inclusive, so phosphorylation enrichment at 0.5 or higher is 1 (yes), anything lower is 0 (no).

LTFHMYADPNI [SOS1_Y618_F623I_YF]; 1 (yes)
YTDPYYDYEIE [ZC3H18_Y372_A368T]; 1 (yes)

Task: # check: phosphorylation enrichment of VHNLNYYKKTT [FGFR3_Y647_D646N] is greater than or equal to 0.5
Output: 0 (no)

Task: # check: phosphorylation enrichment of ALTDNYMFLVI [HAGH_Y61_YF] is greater than or equal to 0.5
Output: 1 (yes)

Task: # check: phosphorylation enrichment of LASLIYNFILF [AQP6_Y231_V234I] is greater than or equal to 0.5
Output: 1 (yes)

Task: # check: phosphorylation enrichment of ARMTNYGLPRY [TSPAN12_Y138] is greater than or equal to 0.5
Output: 1 (yes)

Task: # check: phosphorylation enrichment of CTTIHNNYMCN [TP53_Y234_Y234N] is greater than or equal to 0.5
Output: 0 (no)

Task: # check: phosphorylation enrichment of AAVDNYCRHNF [HLA-DRB1_Y107_T106N_YF] is greater than or equal to 0.5
Output: 0 (no)

Task: # check: phosphorylation enrichment of IYETDYYQKGG [INSR_Y1189_R1191Q] is greater than or equal to 0.5
Output: 1 (yes)

----------
Tested on: c-Src
test: phosphorylation enrichment, bacterial display (enrichment ratio); higher = better substrate or ligand; peptides without Tyr show the background
Kind request: treat 0.9 as inclusive, so phosphorylation enrichment at 0.9 or higher is condition met, anything lower is condition not met.

SLKAFYGEDAK [ALDH3A1_Y272_E270A]; condition not met

Task: # check: phosphorylation enrichment of RIVRKYKKVRF [F8_Y442_G439V] is greater than or equal to 0.9
Output: condition not met

Task: # check: phosphorylation enrichment of GGQDVYGDFGG [Probound] is greater than or equal to 0.9
Output: condition met

Task: # check: phosphorylation enrichment of QRRFLYFFSFL [PTEN_Y176_V175L_YF] is greater than or equal to 0.9
Output: condition not met

Task: # check: phosphorylation enrichment of QQLDEYQELLD [LMNA_Y359] is greater than or equal to 0.9
Output: condition not met

Task: # check: phosphorylation enrichment of PLDGEYFTLPI [TP53_Y327_Q331P] is greater than or equal to 0.9
Output: condition met

Task: # check: phosphorylation enrichment of TKDTFYKQPMV [GBA_Y451_F456V] is greater than or equal to 0.9
Output: condition not met

----------
tgt: FGFR3 (UniProt P22607)
Sequence (P22607 whole entry, looked up): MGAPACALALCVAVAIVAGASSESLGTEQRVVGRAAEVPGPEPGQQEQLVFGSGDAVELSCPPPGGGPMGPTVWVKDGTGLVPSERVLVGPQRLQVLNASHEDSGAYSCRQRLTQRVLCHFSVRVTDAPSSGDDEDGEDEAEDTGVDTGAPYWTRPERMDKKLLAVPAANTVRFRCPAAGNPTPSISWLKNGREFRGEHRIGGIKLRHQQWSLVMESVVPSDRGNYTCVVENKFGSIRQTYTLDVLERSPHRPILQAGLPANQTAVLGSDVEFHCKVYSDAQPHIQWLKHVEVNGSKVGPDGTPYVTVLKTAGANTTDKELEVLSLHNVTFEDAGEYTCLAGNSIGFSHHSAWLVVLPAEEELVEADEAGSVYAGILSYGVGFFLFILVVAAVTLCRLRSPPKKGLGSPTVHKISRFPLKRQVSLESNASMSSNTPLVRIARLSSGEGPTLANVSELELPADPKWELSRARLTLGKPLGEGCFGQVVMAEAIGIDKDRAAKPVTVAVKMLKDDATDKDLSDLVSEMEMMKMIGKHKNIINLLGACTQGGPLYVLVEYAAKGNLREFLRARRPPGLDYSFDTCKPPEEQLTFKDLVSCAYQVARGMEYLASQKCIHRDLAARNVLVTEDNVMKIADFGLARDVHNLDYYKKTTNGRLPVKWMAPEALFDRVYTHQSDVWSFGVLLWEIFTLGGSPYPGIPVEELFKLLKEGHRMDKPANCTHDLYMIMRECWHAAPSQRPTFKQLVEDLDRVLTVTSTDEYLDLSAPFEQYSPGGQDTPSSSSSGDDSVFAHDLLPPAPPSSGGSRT
test: phosphorylation enrichment, bacterial display (enrichment ratio); higher = better substrate or ligand; peptides without Tyr show the background
property name: phosphorylation enrichment
Answers are plain numbers.

Examples with their reported phosphorylation enrichment follow.
RGDSAYHSQRH [ERBB3_Y1132]; 0.427
RSGIYYKPESL [L2HGDH_Y103_H98R]; 3.3
SLKAFYGEDAK [ALDH3A1_Y272_E270A]; 0.538

For each listed entry, give its phosphorylation enrichment.
1. GHGRFYMKEAI [PGM1_Y66_D62H]
2. FSNVLYRPRGA [TMIGD2_Y197_YF]
3. SKEPFYVRCIK [MYO1D_Y586_YF]
4. IATAIYSGDKI [UGGT2_Y823]
5. EQKRFYNAMKK [SCN5A_Y1495_K1493R_YF]
6. KKRSVYLKVLF [CC2D2A_Y683]
7. KMKGDYYCYLA [YWHAG_Y130_R132C]
8. SYPREYGSQEG [RBM10_Y48]

Output:
1: 0.59; 2: 0.43; 3: 0.634; 4: 0.482; 5: 0.415; 6: 0.721; 7: 9.02; 8: 0.519

----------
Tested on: c-Abl (mouse)
test: phosphorylation enrichment, bacterial display (enrichment ratio); higher = better substrate or ligand; peptides without Tyr show the background
Please go through the items and note down their phosphorylation enrichment.
Give bare numbers.

Examples with their reported phosphorylation enrichment follow.
QLAPQYTYTQG [FLNA_Y1761_A1764T]; 0.36
VMICAYLLHRG [PTEN_Y138]; 1.27
RFLERYIFNRE [HLA-DPB1_Y57_YF]; 0.627

For each listed entry, give its phosphorylation enrichment.
1. FADTAYNYRHG [PAH_Y166_I164T]
2. RKGIRYLTSGL [PIGA_Y82]
3. LASSEYPVQRR [GALK1_Y236_R239Q]
4. TFGQVYKGRHV [TNIK_Y40_YF]
5. AVRYIYTIDGS [DCX_Y105_G100A]
6. RISGVYKLPPD [ANGPTL7_Y145]
7. FISVGYVDGTQ [HLA-B_Y51_D54G]

Output:
1: 0.46; 2: 0.438; 3: 1.03; 4: 0.555; 5: 0.727; 6: 0.838; 7: 0.572

----------
tgt: Fes (UniProt P07332)
Sequence (P07332 whole entry, looked up): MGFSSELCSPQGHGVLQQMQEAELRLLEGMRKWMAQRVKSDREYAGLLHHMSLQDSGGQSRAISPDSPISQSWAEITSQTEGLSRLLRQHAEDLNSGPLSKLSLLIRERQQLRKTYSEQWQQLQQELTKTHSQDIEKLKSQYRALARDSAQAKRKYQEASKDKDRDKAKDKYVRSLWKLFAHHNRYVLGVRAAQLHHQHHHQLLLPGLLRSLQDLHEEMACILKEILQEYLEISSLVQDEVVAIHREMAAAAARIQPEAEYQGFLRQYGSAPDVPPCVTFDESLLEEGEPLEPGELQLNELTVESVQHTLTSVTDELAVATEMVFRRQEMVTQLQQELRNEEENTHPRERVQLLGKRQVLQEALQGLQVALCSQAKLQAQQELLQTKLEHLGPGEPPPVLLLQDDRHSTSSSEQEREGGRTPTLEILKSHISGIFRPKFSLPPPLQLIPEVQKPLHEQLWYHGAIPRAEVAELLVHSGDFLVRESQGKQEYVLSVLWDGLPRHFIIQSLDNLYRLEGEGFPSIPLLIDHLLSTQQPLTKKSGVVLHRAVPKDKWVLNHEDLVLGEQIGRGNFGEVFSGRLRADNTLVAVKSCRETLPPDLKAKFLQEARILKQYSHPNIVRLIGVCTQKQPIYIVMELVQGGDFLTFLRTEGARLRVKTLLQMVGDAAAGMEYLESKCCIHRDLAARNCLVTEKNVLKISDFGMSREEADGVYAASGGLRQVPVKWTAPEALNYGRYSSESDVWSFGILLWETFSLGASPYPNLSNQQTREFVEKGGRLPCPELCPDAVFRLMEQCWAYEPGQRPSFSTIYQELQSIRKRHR
test: phosphorylation enrichment, bacterial display (enrichment ratio); higher = better substrate or ligand; peptides without Tyr show the background
Please go through the items and note down their phosphorylation enrichment.
Answers are plain numbers.

Examples with their reported phosphorylation enrichment follow.
FRPPYYHRDCM [HGD_Y334_N337D]; 0.867
RVKPIYFHTQG [AR_Y916_K911R]; 1.69
RTCSSYTIEKI [PARP15_Y520_A521T]; 1.51
FVHDNYVIRRT [CPS1_Y1450]; 0.739
HSQEDYFECFQ [ZIM2_Y411]; 1.82

For each listed entry, give its phosphorylation enrichment.
1. KPPFSYNALIM [FOXG1_Y186]
2. EEGESHVCSSD [DCX_Y125_Y125H]
3. EEQKRYFNAMK [SCN5A_Y1494_K1493R_YF]
4. YENGEYIVRQG [PRKG1_Y247_I249V]
5. PQQLWYTHKKK [UBTF_Y207_E210K]
6. FAKTQYPDIFA [CRX_Y63_V66I_YF]

Output:
1. 0.724
2. 1.07
3. 0.645
4. 0.937
5. 1.14
6. 0.922

For each listed entry, give its phosphorylation enrichment.
1. SVTFTYSPALN [TP53_Y126_C124Y_YF]
2. SCTFTYLLGDR [ETHE1_Y38]
3. LEQDEYALRSH [HADHB_Y244]
4. RVQKRYIFDNV [RCN1_Y115]
5. RFGRKYKKVRF [F8_Y442_I438F]
6. QMQAAYQKAVA [HBD_Y131_V134A]
7. TSPKSYPSQKH [CAP2_Y316]
8. LNLKEYNLVGG [GNAQ_Y356]

Output:
1.21
1.2
1.75
0.442
0.841
0.798
0.526
0.867

For each listed entry, give its phosphorylation enrichment.
1. DHKRQYELLKL [KIF4B_Y684_R680H]
2. LGLTVYADCLA [ABCA4_Y2063]
3. FADGVYLALEE [DUOX2_Y70_Q71L_YF]
4. ADYYDYGRGLS [KHDRBS3_Y304_H306R]
5. FASALYGQRRS [FGF11_Y162_R163G_YF]
6. NTGLDYIKFTW [HRH1_Y386]
7. DSFSSYCNAVA [SLC20A2_Y436_YF]

Output:
1: 0.697; 2: 1.39; 3: 1.04; 4: 0.831; 5: 0.682; 6: 1.31; 7: 1.11

For each listed entry, give its phosphorylation enrichment.
1. QVMDGYPIPIG [MMP14_Y353_M355I]
2. HPWPRYTTRAP [FNDC1_Y1281_Q1280R]
3. HKDNNYISMWF [PAPOLG_Y432_V433I]
4. PMFHSYVSLPF [PLXNA2_Y293_K289M]
5. SVTYTYSPALN [TP53_Y126_C124Y]
6. KDLPNYNWKSF [KISS1_Y112_N115K]

Output:
1: 0.715; 2: 0.907; 3: 2.53; 4: 1.56; 5: 1.16; 6: 0.865

----------
Please go through the items and note down their phosphorylation enrichment.
tgt: FGFR1 (UniProt P11362)
Sequence (P11362 whole entry, looked up): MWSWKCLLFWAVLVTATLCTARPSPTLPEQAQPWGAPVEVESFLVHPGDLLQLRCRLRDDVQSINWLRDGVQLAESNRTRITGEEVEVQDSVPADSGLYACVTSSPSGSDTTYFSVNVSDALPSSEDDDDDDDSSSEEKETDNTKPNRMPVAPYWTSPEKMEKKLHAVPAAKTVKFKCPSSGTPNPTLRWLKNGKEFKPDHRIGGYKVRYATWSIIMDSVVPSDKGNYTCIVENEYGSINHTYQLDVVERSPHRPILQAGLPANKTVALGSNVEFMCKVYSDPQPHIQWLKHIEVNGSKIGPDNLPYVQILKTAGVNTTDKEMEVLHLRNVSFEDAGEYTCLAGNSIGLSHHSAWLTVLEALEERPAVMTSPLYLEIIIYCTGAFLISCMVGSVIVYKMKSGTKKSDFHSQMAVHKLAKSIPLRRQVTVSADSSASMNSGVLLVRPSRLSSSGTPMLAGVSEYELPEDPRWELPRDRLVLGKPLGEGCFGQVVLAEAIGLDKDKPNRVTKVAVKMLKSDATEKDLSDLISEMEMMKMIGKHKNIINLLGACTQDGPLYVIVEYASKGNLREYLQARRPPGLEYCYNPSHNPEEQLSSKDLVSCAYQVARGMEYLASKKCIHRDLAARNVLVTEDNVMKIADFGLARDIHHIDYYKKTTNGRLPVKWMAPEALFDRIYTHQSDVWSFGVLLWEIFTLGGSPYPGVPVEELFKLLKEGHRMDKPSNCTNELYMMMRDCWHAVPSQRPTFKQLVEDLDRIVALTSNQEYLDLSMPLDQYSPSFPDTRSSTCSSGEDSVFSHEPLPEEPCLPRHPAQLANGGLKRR
test: phosphorylation enrichment, bacterial display (enrichment ratio); higher = better substrate or ligand; peptides without Tyr show the background
Numbers only.

Examples with their reported phosphorylation enrichment follow.
QPGTDYKIYRY [FN1_Y1970_L1974R]; 0.583
LLIMEYAKFGS [RET_Y806_V804M_YF]; 0.772
ITGNGYFFRVF [MYBPC3_Y1135_I1131T_YF]; 0.451
RAEIVYKSPVV [MAPT_Y711_G706R]; 0.783
DYDHSYYFIAT [ESD_Y262_G257D]; 11.7

For each listed entry, give its phosphorylation enrichment.
1. PMFHSYVSLPF [PLXNA2_Y293_K289M]
2. NKEAIYSGFIR [SMCHD1_Y283_YF]

Output:
3.85
0.59

For each listed entry, give its phosphorylation enrichment.
1. GRVYVYRLSEQ [ITGAE_Y551]
2. AVRYIYTIDGS [DCX_Y105_G100A]
3. RLLVVYPWTQR [HBB_Y36]
4. QSQQAYQEAFE [YWHAZ_Y149]

Output:
1: 0.411; 2: 0.579; 3: 0.591; 4: 0.488
